ASSAY_INFO: Activities and properties of the compounds (Table III codes listed as Specific Properties in Table IV)
TEST_SETTINGS: codes of Table III; higher levels of activity
Excerpt: Certain of the compounds produce a profound hypothermia, but without anesthetizing. […] Table III, following, sets forth a list of the other properties of these guanidino compounds, which arise from their alpha-adrenergic agonist activity, combined with any inherent activity of the reactants chosen to achieve the final compound. […]
EXPERIMENTAL_READOUT: Specific Properties

compound=Cn1c(=O)c2c(ncn2CC(=O)NCc2nc3ccccc3[nH]2)n(C)c1=O experimental_readout="Specific Properties" result="3, adrenergic antagonist, 12"
compound=CC1(N=Cc2c(Cl)cccc2Cl)N=c2ccccc2=N1 experimental_readout="Specific Properties" result="14, 17 adrenergic antagonist, 22, 23"
compound=Cl.Cn1c(=O)c2c(ncn2CC(=O)Nc2nc(N)nc(NC(=O)C[N+](C)(C)C)n2)n(C)c1=O experimental_readout="Specific Properties" result="2, 3, 15, cholinergic"
compound="CC(=O)[C@@]1(OC(=O)CNC(=N)N)CCC2C3C=C(C)C4=CC(=O)CCC4(C)C3CCC21C (stereo partly shown)" experimental_readout="Specific Properties" result="27, Progestin, androgenic"
compound="N=C(N)NNC(=O)Cc1c[nH]c2ccc(O)cc12 [Compound 38, 5-Hydroxyindole-3-acetamidoguanidine]" experimental_readout="Specific Properties" result=5
compound="[H]/N=C(\\N/C(=N/[H])Nc1ccc(Cl)cc1)NC(C)C [Compound 217, reference compound]" experimental_readout="Specific Properties" result="1, 4, 6–9, 16, 17, 19 antimalarial"

Return Specific Properties for the following compound: "COc1cc(CNC(=O)CNC(=N)N)ccc1O"
2 (Antispasticity and muscle relaxant)

Return Specific Properties for the following compound: "Cn1c(=O)c2c(ncn2CC(=O)NC(=O)c2ccc(C(=N)N)cc2)n(C)c1=O"
3, 2, 2, antagonist, 12
